Tested on: PC-3 prostate
method: NCI-60 one-dose screen, 48 h
condition.context: 10 µM unless noted
Compounds without any hit were thinned out: in the full panel of roughly 83,000, 20% have a hit. The source made the active and inactive calls. How the source made its calls: active means growth percent below 10; inactive means the rest.
Outcome codes: active, inactive

- compound: "NS(=O)(=O)c1ccc(Nc2nc(SCC(=O)c3ccc(Cl)cc3)nc3ccccc23)cc1"
  label.class: "inactive"
- compound: "N#Cc1nc(-c2ccccc2)oc1N1CCC(CO)C1 (stereo unspecified)"
  label.class: "inactive"
- compound: "COc1cc(OC)c(S(=O)(=O)NNC(=O)c2ccncc2)cc1C(=O)/C=C/c1ccc(C)cc1"
  label.class: "inactive"
- compound: "CC(=O)Oc1ccccc1C(=O)Nc1ccc(C(=O)/C=C/c2cccs2)cc1"
  label.class: "inactive"
- compound: "N#Cc1c(-c2ccc(F)cc2)nc2c(C#N)c(Nc3ccccc3)nn2c1N"
  label.class: "inactive"
- compound: "COc1cc(N=Cc2sc(Nc3nccs3)nc2O)cc(OC)c1OC"
  label.class: "inactive"
- compound: "COc1ccc(C(=O)/C=C/c2ccc(Oc3nc(NCCO)nc(N4CCOCC4)n3)c(OC)c2)cc1"
  label.class: "inactive"
- compound: "CCOC(=O)c1c(NC(=O)c2cccc(C(F)(F)F)c2)sc2cc(O)ccc12"
  label.class: "inactive"
- compound: "CC(=NNc1ncnc2ccccc12)c1ccc(S(C)(=O)=O)cc1"
  label.class: "inactive"
- compound: "O=C(CN1CCOCC1)NNc1ncnc2ccccc12"
  label.class: "inactive"
- compound: "C#Cc1nc(C2=C(C)C(O)CC2)cs1 (stereo unspecified)"
  label.class: "inactive"
- compound: "O=C(O)CCCCCN1C(=O)/C(=C/c2ccc(O)c(O)c2)SC1=S"
  label.class: "inactive"
- compound: "O=C(Oc1ccc2ccc(=O)oc2c1)c1ccc(Cl)cc1"
  label.class: "inactive"
- compound: "O=C1c2c(c3c4cccnc4[nH]c3c3ccc4ccccc4c23)C(=O)N1CCO"
  label.class: "inactive"
- compound: "NC(=O)c1cc(-c2ccc3ncnc(N4CCc5cc(F)c(Cl)cc54)c3c2)cnc1N"
  label.class: "inactive"
- compound: "O=C(CSc1nc2sc3c(c2c(=O)n1-c1ccc(Cl)cc1)CCCC3)NNC(=O)Nc1cccc(C(F)(F)F)c1"
  label.class: "active"
- compound: "c1ccc2c(NCCCn3ccnc3)c3oc4ccccc4c3nc2c1"
  label.class: "active"
- compound: "CSc1ccc2c(c1)N(C(=O)/C(C#N)=C/c1c[nH]c3ccccc13)c1ccccc1S2"
  label.class: "inactive"
- compound: "CCN1CCN(S(=O)(=O)c2oc(-c3ccc(Cl)cc3)nc2C#N)CC1"
  label.class: "inactive"
- compound: "O=C(CSc1nccc(=O)[nH]1)Nc1ccc(-c2nc3ccccc3[nH]2)cc1"
  label.class: "inactive"
- compound: "COC(=O)C1CN(S(=O)(=O)/N=C2\\NC(=O)NC2=C(Cl)Cl)C1"
  label.class: "inactive"
